Hello, the source for this data is patent US12611439B2, in case you need it.

assay: Net charge of self-assembling peptides in solution; assay type: physicochemical; conditions: in solution at pH 7.5
Experimental Endpoint: Net charge at pH 7.5

Worked set:
>>> reported_value("Ac-KIQIKIQIKIQIK-NH2 [KIQI13]")
"+4"
>>> reported_value("Ac-NLKLNLKLNLKL-NH2 [NLKL12]")
"+3"
>>> reported_value("Ac-RANARANARANARANA-NH2 [RANA16]")
"+4"

Inquiry: State its Net charge at pH 7.5: Ac-QIKIQIKIQIKIQ-NH2 [QIKI13]
Reply text: +3

Inquiry: Look up Net charge at pH 7.5 of Ac-INIKINIKINIKI-NH2 [INIK13] and report it.
Reply text: +3

Inquiry: Check the records and state Net charge at pH 7.5 for Ac-NLDLNLDLNLDL-NH2 [NLDL12]
Reply text: −3

Inquiry: Input Ac-KLNLKLNLKLNLKLNLK-NH2 [KLNL17] , output reported Net charge at pH 7.5.
Reply text: +5

Inquiry: Fill in Net charge at pH 7.5 for record Ac-IQIKIQIKIQIK-NH2 [IQIK12]
Reply text: +3

Inquiry: Consider the substance Ac-LNLKLNLKLNLK-NH2 [LNLK12] and give its recorded Net charge at pH 7.5.
Reply text: +3

Inquiry: Identify measured Net charge at pH 7.5 corresponding to Ac-KLTLKLTLKLTL-NH2 [KLTL12]
Reply text: +3

* * *

Assay: Net charge of self-assembling peptides in solution
Type: physicochemical
Conditions: in solution at pH 7.5
Text: Several exemplary self-assembling peptides described herein (Table 5; SEQ ID NO:21-40) were designed to have a net charge, positive or negative, when formulated at pH 7.5. In contrast, previously-described self-assembling peptides have a net zero charge at the same pH.
Listing of recorded Net charge at pH 7.5 by entry.

Inquiry: Identify measured Net charge at pH 7.5 corresponding to Ac-IQIKIQIKIQIKI-NH2 [IQIK13]
Reply text: +3

Inquiry: Answer with reported Net charge at pH 7.5 of Ac-IKIQIKIQIKIQI-NH2 [IKIQ13]
Reply text: +3

Inquiry: Give a short answer stating reported Net charge at pH 7.5 for Ac-KVNVKVNVKVNV-NH2 [KVNV12] .
Reply text: +3

Inquiry: Item Ac-KLNLKLNLKLNLK-NH2 [KLNL13] : provide Net charge at pH 7.5
Reply text: +4

Inquiry: Find the measured Net charge at pH 7.5 of Ac-KLDLKLDLKLDL-NH2 [KLDL12, reference compound] and report it.
Reply text: 0

Inquiry: Given Ac-KANAKANAKANA-NH2 [KANA12] , respond with its Net charge at pH 7.5.
Reply text: +3

Inquiry: Report measured Net charge at pH 7.5; entry is Ac-LKLNLKLNLKLN-NH2 [LKLN12]
Reply text: +3
